Quick reference: inhibition of the listed items.
# TESTED_TARGET: Tyrosine-protein phosphatase non-receptor type 1 (Homo sapiens) (UniProt P18031)
# Sequence (whole entry): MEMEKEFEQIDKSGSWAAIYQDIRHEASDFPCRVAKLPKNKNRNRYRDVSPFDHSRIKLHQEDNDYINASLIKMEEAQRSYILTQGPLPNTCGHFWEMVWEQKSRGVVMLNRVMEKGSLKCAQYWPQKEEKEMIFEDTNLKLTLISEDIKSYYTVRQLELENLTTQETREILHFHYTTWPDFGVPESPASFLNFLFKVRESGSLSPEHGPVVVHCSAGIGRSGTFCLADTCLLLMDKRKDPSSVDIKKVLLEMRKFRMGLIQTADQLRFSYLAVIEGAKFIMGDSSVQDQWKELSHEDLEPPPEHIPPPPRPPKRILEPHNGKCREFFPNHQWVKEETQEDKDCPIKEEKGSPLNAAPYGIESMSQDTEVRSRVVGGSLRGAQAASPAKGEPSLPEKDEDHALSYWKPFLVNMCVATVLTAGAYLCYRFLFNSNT
# EXPERIMENT_NOTES: Inhibition of recombinant human N-terminal poly histidine-tagged PTP1B (Glu2 to Asn321 residues) expressed in Escherichia coli at 40 umol/L using pNPP as substrate measured for 4 mins relative to control
Write the number in % without appending the unit.

Sample `Ac-WIAQELRRIGDEFN-NH2` ; inhibition observed: 9.43

Kindly note the recorded inhibition for `Ac-IAQELRRIGDEF-NH2` , which is 2.1

For `Ac-IAQELRRIGDEFNA-NH2` the substance record lists inhibition as 3.31

Briefly, inhibition measured for `Ac-IWIAQELRRIGDEFNA-NH2` : 2.32

Shift focus to the following entry.
`Ac-IWIAQELRRIGDEF-NH2` yielded inhibition of 5

Taken from ChEMBL document CHEMBL4371021.
